# experiment.summary: Viscosity by rheology (temperature ramp, cone-plate rheometer)
# Type: physicochemical
# assay.conditions: 100°C, shear rate 60 s^-1
# Method: Viscosity is another crucial parameter on the development of a reactive diluent. To obtain an effective reactive diluent, monomers providing a low viscosity need to be obtained. The referred viscosity is preferably between 5 and 100 mPa.s, more preferably between 5 and 50 mPa.s, and even more preferably 5 and 20 mPa.s. The presented viscosities refer to the process temperature which can be between 30-150°C. The viscosity was determined via rheology. […]
readout.name: log10(Viscosity) (log10 of the value in mPa.s)
Hey, these are logged values: log10 of Viscosity, mPa.s being the unit before logging.

# example entries with known answers
C=C(C)C(=O)OC1CCCCC1OC(=O)C(CC)CCCC (stereo not drawn) [Ex5] ... 1.28
C=C(C)C(=O)OC1CCCCC1OC(=O)C1CCCCC1 (stereo not drawn) [Ex2] ... 0.60
C=C(C)C(=O)OC1CCCCC1OC(=O)Cc1ccccc1 (stereo not drawn) [Ex4] ... 0.85
C=C(C)C(=O)OCCO [Ref2, 2-hydroxyethylmethacrylate, reference compound] ... 0.00
C=C(C)C(=O)OC1CCCCC1OC(=O)C(C)(C)C (stereo not drawn) [Ex3] ... 0.30

// below: log10(Viscosity) requested for another molecule
stdin: Quick one: log10(Viscosity) for C=C(C)C(=O)OC1CCCCC1O (stereo not drawn) [Ex1, 2-hydroxycyclohexyl methacrylate] ?
stdout: 0.48
